# targetSystem: Recombinant N-terminal GST tag full-length human HDAC11 (Homo sapiens (Human), UniProt Q96DB2)
# assayMethodText: Probe binding HDAC11 assay, time resolved fluorescence (TRF)
# particulars: read-out: HDAC11 IC50 Range
Please go through the items and note down their IC50.

Example results:
COCCn1c(Nc2cccc(C(=O)NO)c2)nc2ccccc21 [Example 23-1]
> 1000 nM
O=C(NO)c1cccc(Nc2nc3cc(-c4ccncc4)c(C(F)(F)F)cc3[nH]2)c1 [Example 36-3]
< 500 nM
N#Cc1cc2nc(Oc3cccc(C(=O)NO)c3)[nH]c2cc1C(F)(F)F [Example 26-1]
> 1000 nM

Give IC50 for all molecules that follow.
1. O=C(NO)c1cc(Nc2nc3ccccc3[nH]2)cc2ccccc12 [Example 23-2]
2. O=C(NO)c1cncc(Nc2nc3cc(Cl)c(Cl)cc3o2)c1 [Example 4-5]
3. O=C(NO)c1cccc(Nc2nc3ncccc3o2)c1 [Example 32-1]
4. O=C(NO)c1cccc(Nc2nc3cc([N+](=O)[O-])ccc3[nH]2)c1 [Example 33-21]
5. O=C(NO)c1cccc(Nc2nc3cc(C(F)(F)F)c(-c4ccoc4)cc3[nH]2)c1 [Example 36-20]
6. CS(=O)(=O)c1ccc2[nH]c(Nc3cccc(C(=O)NO)c3)nc2c1 [Example 33-23]

Output:
1. > 1000 nM
2. < 500 nM
3. > 1000 nM
4. 500 to 1000 nM
5. < 500 nM
6. > 1000 nM

====

# targetSystem: Full length human recombinant HDAC11 (Homo sapiens (Human))
# Sequence (Q96DB2 whole entry): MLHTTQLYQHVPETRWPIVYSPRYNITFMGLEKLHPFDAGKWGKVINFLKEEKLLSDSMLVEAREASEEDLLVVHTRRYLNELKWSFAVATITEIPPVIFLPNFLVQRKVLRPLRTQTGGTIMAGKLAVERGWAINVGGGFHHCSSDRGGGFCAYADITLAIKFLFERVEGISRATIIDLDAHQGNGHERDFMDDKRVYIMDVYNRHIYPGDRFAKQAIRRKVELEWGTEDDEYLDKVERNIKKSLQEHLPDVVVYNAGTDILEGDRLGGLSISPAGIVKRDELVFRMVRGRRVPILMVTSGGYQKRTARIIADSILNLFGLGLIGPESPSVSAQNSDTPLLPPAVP
# assayMethodText: Enzymatic HDAC11 assay, electrophoretic mobility shift
# particulars: substrate FAM-RHKK(tri-fluor-Ac)-NH2, read-out: HDAC11 IC50 Range
pIC50: −log10 of the molar value.
reportedEndpoint: pIC50

O=C(NO)c1cccc2c1CCC1(CCN(c3ccc(C(F)(F)F)cc3)C1=O)C2 (centres unmarked)
> 6.30
O=C(NO)c1cccc2c1OC1(CC2)CCN(C(=O)c2ccc(F)cc2)CC1
< 6.00
O=C(NO)c1cccc2c1CC1(CCN(Cc3ccc(C(F)(F)F)cc3)C1=O)C2 (centres unmarked)
> 6.30
O=C(NO)c1cccc2c1CC1(CCN(c3ccccc3C(F)(F)F)C1=O)C2 (centres unmarked)
< 6.00

Here is another compound to look at.
Reported pIC50 for O=C(NO)c1cccc2c1CC1(CCN(CC3CC3)C1=O)C2 (centres unmarked) was < 6.00

====

# targetSystem: HDAC4 (Homo sapiens (Human), UniProt P56524)
# Sequence (P56524 whole entry): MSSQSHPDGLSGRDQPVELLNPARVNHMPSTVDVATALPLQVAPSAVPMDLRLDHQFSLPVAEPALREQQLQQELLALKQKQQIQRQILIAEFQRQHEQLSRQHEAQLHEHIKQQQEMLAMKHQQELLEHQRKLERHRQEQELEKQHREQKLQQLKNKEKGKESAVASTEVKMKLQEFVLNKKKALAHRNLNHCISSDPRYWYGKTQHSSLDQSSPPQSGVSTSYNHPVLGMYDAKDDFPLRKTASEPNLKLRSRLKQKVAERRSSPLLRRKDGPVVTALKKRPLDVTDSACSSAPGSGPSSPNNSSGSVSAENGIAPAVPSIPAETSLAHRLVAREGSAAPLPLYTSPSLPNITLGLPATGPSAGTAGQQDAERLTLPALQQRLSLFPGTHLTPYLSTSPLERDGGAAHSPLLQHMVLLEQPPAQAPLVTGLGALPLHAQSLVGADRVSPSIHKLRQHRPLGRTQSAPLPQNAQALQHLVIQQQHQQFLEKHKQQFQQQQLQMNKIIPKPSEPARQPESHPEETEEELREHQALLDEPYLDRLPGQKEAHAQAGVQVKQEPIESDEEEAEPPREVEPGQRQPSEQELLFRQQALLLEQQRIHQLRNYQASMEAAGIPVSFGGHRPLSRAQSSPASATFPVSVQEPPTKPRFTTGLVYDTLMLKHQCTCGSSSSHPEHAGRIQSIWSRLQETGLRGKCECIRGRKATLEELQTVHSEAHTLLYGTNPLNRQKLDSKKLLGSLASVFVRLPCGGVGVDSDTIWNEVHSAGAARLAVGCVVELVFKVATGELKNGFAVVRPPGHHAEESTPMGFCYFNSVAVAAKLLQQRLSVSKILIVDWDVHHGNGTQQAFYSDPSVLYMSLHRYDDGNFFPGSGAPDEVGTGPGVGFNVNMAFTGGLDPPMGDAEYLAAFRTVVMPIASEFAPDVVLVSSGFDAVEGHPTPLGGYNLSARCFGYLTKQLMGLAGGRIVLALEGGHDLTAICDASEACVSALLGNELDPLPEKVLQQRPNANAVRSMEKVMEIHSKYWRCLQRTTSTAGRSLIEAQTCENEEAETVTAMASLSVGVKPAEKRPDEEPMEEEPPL
reportedEndpoint: IC50

Reported IC50 for O=C(NO)c1cccc(Nc2nc3cc(Cl)c(Cl)cc3o2)c1 was > 10 µM

====

Please go through the items and note down their IC50.
# targetSystem: Recombinant N-terminal GST tag full-length human HDAC11 (Homo sapiens (Human))
# assayMethodText: Probe binding HDAC11 assay, time resolved fluorescence (TRF)
# particulars: read-out: HDAC11 IC50 Range

O=C(NO)c1cccc(Nc2nc3cc(C(F)(F)F)ccc3[nH]2)c1
< 500 nM

Give IC50 for all compounds that follow.
1. COCc1cccc(-c2cc3[nH]c(Nc4cccc(C(=O)NO)c4)nc3cc2C(F)(F)F)c1
2. O=C(NO)c1cccc(Nc2nc3cc(Cl)c(Cl)cc3o2)c1F
3. O=C(NO)c1ccnc(Nc2nc3cc(Cl)c(Cl)cc3o2)n1
4. CCOc1cccc(-c2cc3[nH]c(Nc4cccc(C(=O)NO)c4)nc3cc2C(F)(F)F)c1
5. COCCn1c(Nc2cccc(C(=O)NO)c2)nc2cc(C(F)(F)F)c(C#N)cc21

Output:
< 500 nM
< 500 nM
> 1000 nM
< 500 nM
< 500 nM

Give IC50 for all compounds that follow.
1. COCCn1c(Nc2cccc(C(=O)NO)c2)nc2cc(C(F)(F)F)c(-c3ccccc3)cc21
2. Cc1cc2[nH]c(Nc3cccc(C(=O)NO)c3)nc2cc1Cl
3. O=C(NO)c1cccc(Nc2nc3cc(Cl)c(Cl)cc3s2)c1 [Example 5-1, 2,2,2-trifluoroacetate]
4. O=C(NO)c1cccc(Nc2nc3cc(C(F)(F)F)c(-c4cccc(C(=O)N5CCOCC5)c4)cc3[nH]2)c1

Output:
["< 500 nM", "< 500 nM", "< 500 nM", "< 500 nM"]

Give IC50 for all compounds that follow.
1. CS(=O)(=O)c1cc2nc(Nc3cccc(C(=O)NO)c3)[nH]c2cc1C(F)(F)F
2. CN(c1cccc(C(=O)NO)c1)c1nc2cc(-c3cccnc3)c(C(F)(F)F)cc2n1C
3. Cn1c(Nc2cccc(C(=O)NO)c2)nc2cc(C(F)(F)F)c(C#N)cc21
4. O=C(NO)c1cccc(Nc2nc3cc(C(F)(F)F)c(-c4cccc(O)c4)cc3[nH]2)c1
5. O=C(NO)c1cc(Nc2nc3cc(Cl)c(Cl)cc3o2)ccn1
6. NCCCCCn1c(Nc2cccc(C(=O)NO)c2)nc2cc(Cl)c(F)cc21
7. O=C(NO)c1cccc(Nc2nc3cc(C(F)(F)F)c(-c4cccnc4)cc3[nH]2)c1

Output:
["< 500 nM", "> 1000 nM", "< 500 nM", "< 500 nM", "< 500 nM", "< 500 nM", "< 500 nM"]

Give IC50 for all compounds that follow.
1. O=C(NO)c1cccc(Nc2nc3nccnc3[nH]2)c1
2. O=C(NO)c1cccc(Nc2nc3cc(Cl)c(Cl)cc3o2)c1

Output:
1: > 1000 nM; 2: < 500 nM

// data source = patent US10508088B2
